procedure.summary: Pharmacokinetics in mice (plasma, brain, CSF)
Type: in vivo
condition.details: C57BL/6N ('9087), C57BL/6 (PS75), mouse, plasma, po, P.O. 30 mg/kg
Where a name gives a salt, the structure may show the parent alone.
Hi there, I'd appreciate the recorded Cmax for every entry that follows.
Please respond with the number in ng/mL and leave the unit unwritten.

Ask: Which value of Cmax has been reported for Clc1ccc2cccc(Nc3ccncc3)c2c1 [PS75, TFA] in the records?
Result: 2390

Ask: Another compound to look at: c1ccc2c(Nc3ccncc3)cncc2c1
Result: 2720

###

target.or.system: ALPHA-2A ADRENERGIC RECEPTOR (Homo sapiens (Human))
Sequence (P08913 whole entry): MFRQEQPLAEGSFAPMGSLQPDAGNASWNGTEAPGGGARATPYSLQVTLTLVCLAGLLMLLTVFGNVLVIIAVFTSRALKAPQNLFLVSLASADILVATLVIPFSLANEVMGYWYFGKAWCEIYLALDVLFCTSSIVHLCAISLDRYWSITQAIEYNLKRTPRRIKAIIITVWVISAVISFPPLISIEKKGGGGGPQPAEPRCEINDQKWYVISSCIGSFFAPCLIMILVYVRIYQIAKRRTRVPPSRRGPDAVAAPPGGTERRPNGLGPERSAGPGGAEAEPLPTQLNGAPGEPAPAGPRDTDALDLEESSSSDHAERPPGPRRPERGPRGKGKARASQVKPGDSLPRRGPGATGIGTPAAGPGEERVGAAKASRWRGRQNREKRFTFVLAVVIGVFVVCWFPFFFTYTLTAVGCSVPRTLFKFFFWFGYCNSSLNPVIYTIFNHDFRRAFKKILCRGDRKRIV
procedure.summary: Gi recruitment (G protein)
Type: cell-based
metric: pEC50
Scale explanation: pEC50 corresponds to minus log10 of a concentration expressed in moles per litre.

Ask: // pEC50 lookup, key: C1=C(c2ccc3c(c2)CC3)CNCC1
Result: 7.35
